Test system: N1ICD cleavage (Notch1)
Test: Inhibition of N1ICD cleavage in human tumor cell lines (N1ICD ELISA)
Type: cell-based
Conditions: CCRF-CEM cells, 24 hours treatment
property.label: IC50 (nM)
Give your result in nM as a bare value.

Requested read-out: IC50. Entry: C[C@H](NC(=O)CCC(F)(F)F)C(=O)N[C@@H]1C(=O)N(CCO)c2ncccc2-c2ccccc21
0.76

====

Tested on: N1ICD cleavage (Notch1)
Test: Inhibition of N1ICD cleavage in human tumor cell lines (N1ICD ELISA)
Assay type: cell-based
Conditions: SW480 cells, 24 hours treatment
property.label: IC50 (nM)
Supply the numeric figure in nM, leaving out any unit text.

Which value of IC50 has been reported for C[C@H](NC(=O)CCC(F)(F)F)C(=O)N[C@@H]1C(=O)N(CCO)c2ncccc2-c2ccccc21 in the records?
0.1

====

Test system: N1ICD cleavage (Notch1)
Test: Inhibition of N1ICD cleavage in human tumor cell lines (N1ICD ELISA)
Type: cell-based
Details: K-562 cells, 24 hours treatment
property.label: IC50
Provide the measurement as a number trailed by its unit.

Using the record for C[C@H](NC(=O)CCC(F)(F)F)C(=O)N[C@@H]1C(=O)N(CCO)c2ncccc2-c2ccccc21 , report its IC50.
0.74 nM
